Data provenance: ChEMBL document CHEMBL5291721

# Target system: 3',5'-cyclic-AMP phosphodiesterase 4D (Homo sapiens); further: assay procedure not described here
# Sequence (Q08499 whole entry): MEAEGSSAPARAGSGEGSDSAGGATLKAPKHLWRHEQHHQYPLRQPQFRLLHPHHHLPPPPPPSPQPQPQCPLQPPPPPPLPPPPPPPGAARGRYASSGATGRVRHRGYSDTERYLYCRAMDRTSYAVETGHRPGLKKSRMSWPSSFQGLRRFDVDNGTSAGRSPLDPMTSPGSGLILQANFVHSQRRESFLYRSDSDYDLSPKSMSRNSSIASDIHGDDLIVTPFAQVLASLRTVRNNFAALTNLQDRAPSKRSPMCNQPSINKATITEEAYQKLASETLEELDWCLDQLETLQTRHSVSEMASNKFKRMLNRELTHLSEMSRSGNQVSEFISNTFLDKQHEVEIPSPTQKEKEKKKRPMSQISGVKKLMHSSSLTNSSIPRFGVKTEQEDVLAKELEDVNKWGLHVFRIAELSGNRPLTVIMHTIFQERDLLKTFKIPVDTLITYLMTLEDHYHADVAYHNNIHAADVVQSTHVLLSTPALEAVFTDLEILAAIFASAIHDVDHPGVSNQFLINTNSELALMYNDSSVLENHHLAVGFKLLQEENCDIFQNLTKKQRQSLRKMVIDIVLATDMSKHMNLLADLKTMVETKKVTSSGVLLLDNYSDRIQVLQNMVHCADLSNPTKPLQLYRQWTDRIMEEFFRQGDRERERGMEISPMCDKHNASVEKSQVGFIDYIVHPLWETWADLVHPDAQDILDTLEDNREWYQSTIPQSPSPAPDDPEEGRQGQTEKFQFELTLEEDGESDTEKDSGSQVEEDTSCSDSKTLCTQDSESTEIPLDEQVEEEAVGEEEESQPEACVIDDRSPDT
# Assay type: functional
List of AC50 values.
Measurement name: AC50

INSERT INTO results (molecule, measurement_name, result) VALUES
  ('CCOC(=O)O[C@]1(C(=O)COC(=O)CC)CC[C@H]2[C@@H]3CCC4=CC(=O)C=C[C@]4(C)[C@H]3[C@@H](O)C[C@@]21C [PREDNICARBATE]', 'AC50', '> 30 µM'),
  ('O=C(O)CCCC[C@@H]1SC[C@@H]2NC(=O)N[C@@H]21', 'AC50', '> 30 µM'),
  ('COc1cc(N)cn[n+]1-c1ccccc1 [AMEZINIUM METILSULFATE]', 'AC50', '> 30 µM'),
  ('CNCCc1ccccn1', 'AC50', '> 30 µM'),
  ('COc1ccc(C(Cl)=C(c2ccc(OC)cc2)c2ccc(OC)cc2)cc1', 'AC50', '> 30 µM'),
  ('CC1=C(/C=C/C(C)=C/C=C/C(C)=C/C(=O)Oc2c(C)c(C)c3c(c2C)CCC(C)(CCCC(C)CCCC(C)CCCC(C)C)O3)C(C)(C)CCC1 (stereo not drawn)', 'AC50', '> 30 µM'),
  ('CC(=O)NC[C@H]1CN(c2ccc(N3CCOCC3)c(F)c2)C(=O)O1', 'AC50', '> 30 µM'),
  ('Nc1cc(N2CCCCC2)nc(N)[n+]1[O-]', 'AC50', '> 30 µM'),
  ('CCCCCCOC(=O)NC(=N)c1ccc(NCc2nc3cc(C(=O)N(CCC(=O)OCC)c4ccccn4)ccc3n2C)cc1 [DABIGATRAN ETEXILATE]', 'AC50', '> 30 µM'),
  ('Cc1cnc(Nc2ccc(OCCN3CCCC3)cc2)nc1Nc1cccc(S(=O)(=O)NC(C)(C)C)c1', 'AC50', '0.22 µM'),
  ('CCCCOC(=O)c1ccc(N)cc1', 'AC50', '26 µM'),
  ('Oc1cc(Cl)ccc1Oc1ccc(Cl)cc1Cl', 'AC50', '> 30 µM'),
  ('NCCCNCCSP(=O)(O)O', 'AC50', '> 30 µM'),
  ('C[C@@H](Cc1ccccc1)N(C)Cc1ccccc1', 'AC50', '> 30 µM'),
  ('CC(=O)Oc1cccc2c1C(=O)c1c(OC(C)=O)cc(C(=O)O)cc1C2=O', 'AC50', '8.8 µM'),
  ('COc1ccc(-n2nc(C(N)=O)c3c2C(=O)N(c2ccc(N4CCCCC4=O)cc2)CC3)cc1', 'AC50', '> 30 µM'),
  ('CCCCOC(=O)C(=O)Nc1cccc(-c2nnn[nH]2)c1', 'AC50', '> 30 µM'),
  ('O=C(c1ccccc1)c1ccc2n1CCC2C(=O)O (stereo not drawn)', 'AC50', '> 30 µM');
